Target: Heat shock protein HSP 90-alpha (Homo sapiens)
Assay: tumor Hsp90 inhibitors, primary screen, cell lysate, fluorescence polarization, NCI-N417 lysate (AID 429)
Settings: NCI-N417 lysate Hsp90, Cy3B-geldanamycin FP displacement; at 30 µM
In all, about 64,000 compounds went through this assay and about 220 (0.34%) were called active.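 Rule for the calls: active = inhibition above 50%; inactive = the rest.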 The sample holds actives, similar compounds and a random draw of the others, so the mix is not that of the screen.
Labels: active, inactive

[
  {
    "compound": "Cc1ccnc(N2C(=O)c3ccccc3C2Nc2ccc3c(c2)OCCO3)c1 (stereo unspecified)",
    "label": "inactive"
  },
  {
    "compound": "CCC(CC)C(=O)Nc1cc(C(=O)OC)cc(C(=O)OC)c1",
    "label": "inactive"
  },
  {
    "compound": "O=C1c2oc3ccc(Br)cc3c(=O)c2C(c2cccc(F)c2)N1CCO (stereo unspecified)",
    "label": "inactive"
  },
  {
    "compound": "Cc1ccc(C)c(NS(=O)(=O)c2cc(Br)cnc2N)c1",
    "label": "inactive"
  },
  {
    "compound": "Cc1ccc(C(=O)O)cc1S(=O)(=O)NCC1CCCO1 (stereo unspecified)",
    "label": "active"
  },
  {
    "compound": "O=C(CN(c1ccc2c(c1)OCCO2)S(=O)(=O)c1ccccc1)Nc1ccc2c(c1)OCO2",
    "label": "inactive"
  },
  {
    "compound": "O=C(Nc1nsc(-c2ccccc2)n1)c1ccncc1",
    "label": "inactive"
  },
  {
    "compound": "CCCn1cc(SCC(N)=O)c2ccccc21",
    "label": "inactive"
  },
  {
    "compound": "Cc1c(-c2nn(C)c(=O)c3ccccc23)oc2ccc(F)cc2c1=O",
    "label": "active"
  },
  {
    "compound": "CCC1(C)CC(=O)NC1=O (stereo unspecified)",
    "label": "inactive"
  },
  {
    "compound": "COc1cc2c(cc1OC)C(c1ccncc1)CC(=O)N2 (stereo unspecified)",
    "label": "inactive"
  }
]

Each recorded value in this set is attributed to PubChem BioAssay AID429.
